Please go through the items and note down their ED50.
biological target: Human immunodeficiency virus type 1 reverse transcriptase (Human immunodeficiency virus 1) (UniProt Q72547); settings: MT4
Description: Inhibitory activity against HIV-1 Cys 181 mutant in MT-4 cells.
Numbers only, in nM.

Example results:
[
  {
    "MOLECULE": "COc1ccc2c(c1)N(C(=O)OC(C)C)C(CSC)C(S)=N2 (stereo not given)",
    "UNIT_ANNOTATION": "nM",
    "ED50": 73
  },
  {
    "MOLECULE": "CCC(=O)c1ccc(F)c(C2CC2NC(=O)Nc2ccc(Br)cn2)c1O (stereo in doubt; 18)",
    "UNIT_ANNOTATION": "nM",
    "ED50": 95
  },
  {
    "MOLECULE": "CCC(=O)c1ccc(F)c(C2CC2NC(=O)Nc2ccc(Cl)cn2)c1O (stereo in doubt; 19)",
    "UNIT_ANNOTATION": "nM",
    "ED50": 100
  }
]

For each listed entry, give its ED50.
1. CCOc1ccc(F)c(C2CC2NC(=O)Nc2cc(Cl)cnn2)c1Cl (stereo not given)
2. CCC(=O)c1ccc(F)c(C2CC2NC(=O)Nc2ccc(Cl)cn2)c1O (stereo in doubt; 20)

1. 2300
2. 100

FYI, the data here is from ChEMBL document CHEMBL1132432.
